- tgt: Neutrophil elastase enzyme (HNE) (Homo sapiens, UniProt P08246)
- Sequence (P08246 30-267): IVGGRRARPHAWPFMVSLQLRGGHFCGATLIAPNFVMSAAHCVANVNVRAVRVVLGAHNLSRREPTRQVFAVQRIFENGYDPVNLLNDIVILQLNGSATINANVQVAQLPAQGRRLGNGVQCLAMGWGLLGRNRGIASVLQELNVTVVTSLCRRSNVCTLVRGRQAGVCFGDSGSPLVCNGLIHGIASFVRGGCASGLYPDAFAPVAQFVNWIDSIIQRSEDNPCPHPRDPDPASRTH
- method.notes: Neutrophil elastase inhibitor activity
- Assay type: biochemical
- assay.setup: read-out: Degree of HNE inhibition (Mean)
I'd be grateful if you could share measured inhibition at 10 µM for these entries.
Give the quantity in %, number only.

Q) Provide measured inhibition at 10 µM value, entry: CC(C)(C)C(=O)Oc1ccc(S(=O)(=O)Nc2ccccc2C(=O)NCC(=O)O)cc1 [Sivelestat, reference compound]
A) 98.6

Q) Provide measured inhibition at 10 µM value, entry: NC(=S)NNC(=O)CC1C(=O)c2ccccc2C1=O
A) 21.5

Q) Provide measured inhibition at 10 µM value, entry: NNC(=O)CC1C(=O)c2ccccc2C1=O
A) 28.7

Q) Provide measured inhibition at 10 µM value, entry: O=C(CC1C(=O)c2ccccc2C1=O)NNC(=S)N=Cc1cccc([N+](=O)[O-])c1
A) 24.6

----------
- tgt: Neutrophil elastase enzyme (HNE) (Homo sapiens, UniProt P08246)
- method.notes: Neutrophil elastase inhibitor activity
- Format: biochemical
- assay.setup: read-out: Degree of HNE inhibition (Mean)
reported.property: inhibition at 50 µM (%)
Give the quantity in %, number only.

Q) Name the value of inhibition at 50 µM reported for CC(C)(C)C(=O)Oc1ccc(S(=O)(=O)Nc2ccccc2C(=O)NCC(=O)O)cc1 [Sivelestat, reference compound] when tested on Neutrophil elastase enzyme (HNE) (Homo sapiens, UniProt P08246).
A) 98.5

Q) Name the value of inhibition at 50 µM reported for NNC(=O)CC1C(=O)c2ccccc2C1=O [IDH1] when tested on Neutrophil elastase enzyme (HNE) (Homo sapiens, UniProt P08246).
A) 30.1

Q) Name the value of inhibition at 50 µM reported for O=C(CC1C(=O)c2ccccc2C1=O)NNC(=S)N=Cc1cccc([N+](=O)[O-])c1 [IDC7] when tested on Neutrophil elastase enzyme (HNE) (Homo sapiens, UniProt P08246).
A) 25.8

Q) Name the value of inhibition at 50 µM reported for NC(=S)NNC(=O)CC1C(=O)c2ccccc2C1=O [IDC2] when tested on Neutrophil elastase enzyme (HNE) (Homo sapiens, UniProt P08246).
A) 24.8

----------
- tgt: Neutrophil elastase enzyme (HNE) (Homo sapiens)
- method.notes: Neutrophil elastase inhibitor activity
- Assay type: biochemical
- assay.setup: read-out: Degree of HNE inhibition (Mean)
I'd be grateful if you could share measured inhibition at 1 µM for these entries.
Give the quantity in %, number only.

Q) Provide measured inhibition at 1 µM value, entry: NNC(=O)CC1C(=O)c2ccccc2C1=O [IDH1]
A) 21.6

Q) Provide measured inhibition at 1 µM value, entry: O=C(CC1C(=O)c2ccccc2C1=O)NNC(=S)N=Cc1cccc([N+](=O)[O-])c1 [IDC7]
A) 16.7

Q) Provide measured inhibition at 1 µM value, entry: NC(=S)NNC(=O)CC1C(=O)c2ccccc2C1=O [IDC2]
A) 18.9

Q) Provide measured inhibition at 1 µM value, entry: CC(C)(C)C(=O)Oc1ccc(S(=O)(=O)Nc2ccccc2C(=O)NCC(=O)O)cc1 [Sivelestat, reference compound]
A) 98.5
